Test system: BT-549 breast
test: NCI tumour cell line growth inhibition, 48 h
Give TGI for every item shown.
# number only, unit µM dropped from output

Value lookup for TGI; key = O=C1Nc2ccccc2/C1=C\c1c(Cl)nc2sccn12
12.7

Could you do the same for COc1cc2c3c(n(CCCNCCNCCN)c(=O)c2cc1OC)-c1cc2c(cc1C3=O)OCO2 , please?
15

Could you do the same for COc1cc(/C=N/n2c(-c3ccccc3)n[nH]c2=O)cc(OC)c1OC , please?
18.6

Could you do the same for c1ccc([P+](c2ccccc2)(c2ccccc2)c2ccc3c4ccc([P+](c5ccccc5)(c5ccccc5)c5ccccc5)c5cccc(c6cccc2c63)c54)cc1 , please?
2.69

Could you do the same for O=C(c1ccc(Cl)cc1)c1no[n+]([O-])c1C(=O)c1ccc(Cl)cc1 , please?
22

Could you do the same for CC(=O)Nc1ccc(S(=O)(=O)Nc2nc(-c3ccc(Cl)cc3)cc(N3N=C(c4ccc(Br)cc4)CC3c3ccccc3)n2)cc1 (stereo not given) , please?
34

Could you do the same for c1cc2c(s1)SSSSS2 , please?
85.9

Could you do the same for [N-]=[N+]=Nc1c(Cc2ccccc2)c(=O)oc2ccccc12 , please?
46.9

###

System: 786-0 renal
test: NCI tumour cell line growth inhibition, 48 h
experimentalEndpoint: TGI (µM)
# number only, unit µM dropped from output

Value lookup for TGI; key = CCCCCCCCOCC(CO)OCCCCCCCC (stereo unspecified)
33.9

Could you do the same for CCN(CC)Cc1cc(Nc2c3ccc(Cl)cc3nc3ccc(OC)cc23)ccc1O , please?
15.2

Could you do the same for c1ccc2cc(C[n+]3ccn(CCCCCCCCCCCCn4cc[n+](Cc5ccc6ccccc6c5)c4)c3)ccc2c1 , please?
6.93

Could you do the same for O=C1c2[nH]c3ccccc3c2CCN2CCCCC12 (stereo unspecified) , please?
56.9

Could you do the same for O=CN(CCN1CCCC1)C1CCc2cc(Cl)c(Cl)cc2C1 (stereo unspecified) , please?
19.9

Could you do the same for O=C1C(Cl)C(c2cc3cc(Br)ccc3nc2Cl)N1c1ccc(F)c(Cl)c1 (stereo unspecified) , please?
2.25

Could you do the same for CCOC(=O)N1C/C(=C/c2ccc(Cl)cc2)C(=O)/C(=C/c2ccc(Cl)cc2)C1 , please?
4.35

Could you do the same for COc1cc(/C=N/n2c(-c3ccccc3)n[nH]c2=O)cc(OC)c1OC , please?
48.2

Could you do the same for Cn1ncc(NC(=O)c2nc(-c3c(F)cccc3F)sc2N)c1N1CC[C@@H](N)[C@H](F)CC1 , please?
20.8

Could you do the same for COC(=O)[C@@H](C)C[C@H](Cc1ccc2ccccc2c1)NC(=O)c1csc([C@@H](C[C@H](C(C)C)N(C)C(=O)[C@@H](NC(=O)[C@H]2CCCCN2C)C(C)C)OC(C)=O)n1 , please?
5.08

###

Test system: U251 CNS
experimentalEndpoint: GI50

Value lookup for GI50; key = CC1(C)CN(c2cc(C(F)(F)F)cc3cncn23)CCC12NC(=O)NC2=O (stereo not given)
37.5 µM

Could you do the same for Nc1nonc1C(=Nc1ccc(F)c(Cl)c1)NO , please?
> 75.7 µM

Could you do the same for CNC(=O)NCC1OC(n2cnc3c(NC(=O)Nc4ccccc4)ncnc32)C(O[Si](C)(C)C(C)(C)C)C1CC(=O)N(C)OC (stereo not given) , please?
4.85 µM

Could you do the same for CC(C)=[CH][Sb]([Br])([CH]=C(C)C)([CH]=C(C)C)[c]1ccccc1 , please?
16.3 µM

Could you do the same for NC1CCCCC1N.Nc1c(N=Nc2ccc(-c3ccc(N=Nc4cc(S(=O)(=O)[O-])c5ccccc5c4N)cc3)cc2)cc(S(=O)(=O)[O-])c2ccccc12.[OH3+].[OH3+].[Pt+4] , please?
> 100 µM

Could you do the same for CS(=O)(=O)O[C@H]1C(=O)N(c2cc3c4ccccc4ccc3c3ccccc23)[C@@H]1c1ccccc1 , please?
0.457 µM

Could you do the same for CC(=O)/C=C/c1ccc(OCc2ccc(C(C)(C)C)cc2)cc1 , please?
> 1000 µM

Could you do the same for C#CCn1cnc2cnc(Nc3cccc(NC(=O)CCl)c3)nc21 , please?
19.6 µM

Could you do the same for COc1cc(/C=C/c2cc(/C=C/c3ccc(O)c(OC)c3)n(-c3c(Cl)cccc3Cl)c(=O)n2)ccc1O , please?
2.37 µM

Could you do the same for c1ccc([P+](c2ccccc2)(c2ccccc2)c2ccc3c4ccc([P+](c5ccccc5)(c5ccccc5)c5ccccc5)c5cccc(c6cccc2c63)c54)cc1 , please?
0.445 µM

Could you do the same for c1ccc2cc(C[n+]3ccn(CCCCCCCCCCCCn4cc[n+](Cc5ccc6ccccc6c5)c4)c3)ccc2c1 , please?
0.521 µM

Could you do the same for CCN(CC)Cc1cc(Nc2c3ccc(Cl)cc3nc3ccc(OC)cc23)ccc1O , please?
3.04 µM

Could you do the same for O=C([O-])c1cc(I)cc(I)c1[OH2+].O=C([O-])c1cc(I)cc(I)c1[OH2+].[Mn+2] , please?
21.5 µM

Could you do the same for Clc1ccc2c(c1)C(Br)c1cc(Cl)cc(Cl)c1-2 (stereo not given) , please?
> 100 µM

Could you do the same for CC1=C2O[C@]3(O)C=C2C(=C(O)C1=O)[C@@H]1O[C@H](CC[C@H](C)/C=C(\C)C[C@@H](C)C[C@@H]3C)[C@H](C)[C@H](O)[C@H]1C , please?
0.288 µM

###

Give log10(TGI) for every item shown.
Tested on: CAKI-1 renal
test: NCI tumour cell line growth inhibition, 48 h
Heads up: the numbers are on a log10 scale; they represent TGI in µM.

Value lookup for log10(TGI); key = COc1cc2ccnc(C=O)c2cc1OC
1.93

Could you do the same for NCCCOc1cc2ccccc2cc1C(=O)NCCOc1nc2ccccc2cc1C(=O)Nc1ccc(Cl)cc1O , please?
0.47

Could you do the same for CNCC(=O)Nc1ccc2c(c1)C(=O)c1ccc(NC(=O)CNC)cc1C2=O , please?
1.30

Could you do the same for O=C1C(Cl)=C(N2C(=O)CCC2=O)C(=O)c2ccccc21 , please?
1.58

Could you do the same for CN(C)CCNc1ccc2nnn3c4ccccc4c(=O)c1c23 , please?
1.27

Could you do the same for O/N=C1/C(=C/c2ccc(Cl)c(Cl)c2)CCCC1C(NO)c1ccc(Cl)c(Cl)c1 (stereo not given) , please?
1.53

###

Tested on: HCT-116 colon
test: NCI tumour cell line growth inhibition, 48 h
Residues, ends and D or L forms follow the SMILES beside them. *: point of attachment. Boc = CC(C)(C)OC(=O)*; OBn = c1ccc(CO*)cc1
Give TGI for every item shown.

Value lookup for TGI; key = O=C(N[C@@H](c1ccccc1)[C@@H](O)C(=O)OCc1ccc2c(c1)OCO2)c1ccccc1
> 100 µM

Could you do the same for C=C1C(=O)O[C@H]2[C@H]1CC/C(COC(=O)/C=C/C(=O)NCc1ccc(Cn3c(=O)sn(-c4ccccc4)c3=O)cc1)=C\CC[C@@]1(C)O[C@@H]21 , please?
1.44 µM

Could you do the same for O=C(CSc1nc2ccccc2c2ccccc12)c1ccccc1 , please?
> 100 µM

Could you do the same for C=Cc1nc2nnc(CCCCCCCCc3nnc4nc(C=C)[nH]n34)n2[nH]1 , please?
> 100 µM

Could you do the same for C=CCOC(C)n1c(C)cc(=O)n(C(C)OCC=C)c1=O (centres undefined) , please?
> 100 µM

Could you do the same for CC(C)CC(NC(=O)OC(C)(C)C)C(=O)NC(CC(=O)OCc1ccccc1)C(N)=O (stereo not drawn) (Boc-Leu-Asp(OBn)-NH2; configuration not given here) , please?
> 100 µM

Could you do the same for C=CCSc1ncnc2c1ncn2C1OC(CO)C(O)C1O (centres undefined) , please?
> 100 µM

Could you do the same for COc1ccc(CC#C/C=C/C(=O)NCC(C)C)cc1 , please?
> 100 µM

Could you do the same for c1ccc2cc(C[n+]3ccn(CCCCCCCCCCCCn4cc[n+](Cc5ccc6ccccc6c5)c4)c3)ccc2c1 , please?
3.21 µM

###

Give TGI for every item shown.
Test system: PC-3 prostate
test: NCI tumour cell line growth inhibition, 48 h

Give TGI (PC-3 prostate) of the following compound: Clc1ccc2c(c1)C(Br)c1cc(Cl)cc(Cl)c1-2 (stereo unspecified)
> 100 µM

Could you do the same for C=CCN1CCN([C@H](c2ccc(C(=O)N(CC)CC)cc2)c2cccc(OC)c2)CC1 , please?
> 25 µM

Could you do the same for Nc1nonc1C(=Nc1ccc(F)c(Cl)c1)NO , please?
> 100 µM

Could you do the same for O=C1Nc2ccccc2/C1=C\c1c(Cl)nc2sccn12 , please?
23.9 µM

Could you do the same for Cc1cc(Nc2ccc(S(=O)(=O)O)cc2)c2ccccc2n1 , please?
> 100 µM

Could you do the same for CC1(CO)COC(C)(C)OC1 , please?
> 100 µM
